These entries and their values trace back to patent US20240317710A1.

assay: Hygroscopic behavior test by dynamic vapor sorption (DVS); type: physicochemical; details: relative humidity 20.0 %, 25° C., DVS
Where a name gives a salt, the structure may show the parent alone.
Readout: Hygroscopic weight gain % (%)

Cc1nc(NC(=O)N2CCC(C)(C)C2=O)ccc1Oc1ccnc(-c2cnn(C)c2)c1 [Hydrochloride crystalline form I]; 0.24
Cc1nc(NC(=O)N2CCC(C)(C)C2=O)ccc1Oc1ccnc(-c2cnn(C)c2)c1 [Tartrate crystalline form I]; 1.79

[a] Cc1nc(NC(=O)N2CCC(C)(C)C2=O)ccc1Oc1ccnc(-c2cnn(C)c2)c1 [Methanesulfonate crystalline form II]
[b] Cc1nc(NC(=O)N2CCC(C)(C)C2=O)ccc1Oc1ccnc(-c2cnn(C)c2)c1 [Phosphate crystalline form I]
Ask: // returns a or b , whichever has the lower Hygroscopic weight gain % Response format: the label of the selected entry.
Reply: a
(a: 0.18%, b: 1.86%)

* * *

test: Hygroscopic behavior test by dynamic vapor sorption (DVS); format: physicochemical; conditions: relative humidity 90.0 %, 25° C., DVS
Counter-ions that a name gives are not always drawn.
Readout: Hygroscopic weight gain % (%)

Cc1nc(NC(=O)N2CCC(C)(C)C2=O)ccc1Oc1ccnc(-c2cnn(C)c2)c1 [Hydrochloride crystalline form I]; 19.40

[1] Cc1nc(NC(=O)N2CCC(C)(C)C2=O)ccc1Oc1ccnc(-c2cnn(C)c2)c1 [Methanesulfonate crystalline form II]
[2] Cc1nc(NC(=O)N2CCC(C)(C)C2=O)ccc1Oc1ccnc(-c2cnn(C)c2)c1 [Phosphate crystalline form I]
[3] Cc1nc(NC(=O)N2CCC(C)(C)C2=O)ccc1Oc1ccnc(-c2cnn(C)c2)c1 [Tartrate crystalline form I]
Ask: Order these by Hygroscopic weight gain %, descending, and give the full ranking. // ordering of labels required in reply
Reply: 1, 3, 2
(1: 23.15%, 3: 10.61%, 2: 6.383%)
